Target: OAT3 (Homo sapiens, UniProt Q8TCC7)
Sequence (Q8TCC7 whole entry): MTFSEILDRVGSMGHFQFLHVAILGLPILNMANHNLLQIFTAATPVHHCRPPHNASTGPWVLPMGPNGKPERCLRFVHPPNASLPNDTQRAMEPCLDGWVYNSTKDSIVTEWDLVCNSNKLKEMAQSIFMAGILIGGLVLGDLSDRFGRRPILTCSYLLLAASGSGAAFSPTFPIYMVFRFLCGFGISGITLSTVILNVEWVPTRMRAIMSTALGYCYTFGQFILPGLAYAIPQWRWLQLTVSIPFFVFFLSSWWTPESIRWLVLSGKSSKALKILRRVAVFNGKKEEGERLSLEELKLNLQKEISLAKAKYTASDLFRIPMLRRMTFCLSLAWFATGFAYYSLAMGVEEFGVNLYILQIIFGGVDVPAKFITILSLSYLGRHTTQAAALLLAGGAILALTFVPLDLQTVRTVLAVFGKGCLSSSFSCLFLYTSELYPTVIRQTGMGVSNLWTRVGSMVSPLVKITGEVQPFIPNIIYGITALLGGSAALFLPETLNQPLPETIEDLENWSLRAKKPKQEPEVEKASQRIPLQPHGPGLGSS
Assay: [3H]-E3S uptake and its inhibition in HEK293-Flp-In OAT3 cells
Assay type: cell-based
Method: All uptake experiments were performed on 24- or 96-well plates. […] The dry plates were covered with transparent seals and analyzed using a TopCount NXT Microplate Scintillation and Luminescence Counter (Perkin Elmer, Waltham, MA, USA). […] The total protein content was measured by using a BCA protein assay kit and a FLUOStar Omega fluorescence microplate reader (BMG Labtech, Ortenberg, Germany). […]
Quantity: IC50

                                   compound   result
0  CC(=O)NCCCS(=O)(=O)O [acamprosate, acetylhomotaurinate]  > 10 mM

====

Molecular target: UniProtKB Q4U2R8
Sequence (Q4U2R8 1-563): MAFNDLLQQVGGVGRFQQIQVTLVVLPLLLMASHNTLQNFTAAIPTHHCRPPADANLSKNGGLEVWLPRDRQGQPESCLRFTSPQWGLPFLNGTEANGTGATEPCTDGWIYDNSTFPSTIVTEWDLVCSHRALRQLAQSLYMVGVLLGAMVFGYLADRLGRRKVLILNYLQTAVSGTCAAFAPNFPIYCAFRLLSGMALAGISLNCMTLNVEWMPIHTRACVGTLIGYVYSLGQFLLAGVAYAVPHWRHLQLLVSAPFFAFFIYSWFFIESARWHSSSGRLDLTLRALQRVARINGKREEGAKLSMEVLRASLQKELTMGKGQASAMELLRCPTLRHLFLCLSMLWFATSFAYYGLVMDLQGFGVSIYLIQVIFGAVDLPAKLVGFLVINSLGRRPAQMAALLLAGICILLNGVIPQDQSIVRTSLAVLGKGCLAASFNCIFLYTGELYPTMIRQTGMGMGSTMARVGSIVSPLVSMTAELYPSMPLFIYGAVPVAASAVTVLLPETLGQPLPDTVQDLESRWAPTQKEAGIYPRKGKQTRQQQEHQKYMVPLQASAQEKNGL
Assay: [14C]-PAH uptake and its inhibition in HEK293-Flp-In OAT1 cells
Settings: Ki, inhibition of PAH uptake via OAT1, Cheng-Prusoff; applied concomitantly; Lab. 2
pKi: −log10 of the molar value.
Quantity: pKi

In [3]: df
Out[3]:
                                   compound  quantitative_readout
0  CC(=O)NCCCS(=O)(=O)O [acamprosate, acetylhomotaurinate]                  3.50

====

Molecular target: OAT3 (Homo sapiens, UniProt Q8TCC7)
Experiment: [3H]-E3S uptake and its inhibition in HEK293-Flp-In OAT3 cells
Assay type: cell-based
Conditions: read-out: IC50, Estrone-3-Sulfate, input for DDI index; Table A1
pIC50: −log10 of the molar value.
Quantity: pIC50

In [3]: df
Out[3]:
                                   molecule  quantity  result
0  CC(=O)NCCCS(=O)(=O)O [acamprosate, acetylhomotaurinate]     pIC50  < 2.00

====

Molecular target: OAT1 (Homo sapiens)
Sequence (Q4U2R8 1-563): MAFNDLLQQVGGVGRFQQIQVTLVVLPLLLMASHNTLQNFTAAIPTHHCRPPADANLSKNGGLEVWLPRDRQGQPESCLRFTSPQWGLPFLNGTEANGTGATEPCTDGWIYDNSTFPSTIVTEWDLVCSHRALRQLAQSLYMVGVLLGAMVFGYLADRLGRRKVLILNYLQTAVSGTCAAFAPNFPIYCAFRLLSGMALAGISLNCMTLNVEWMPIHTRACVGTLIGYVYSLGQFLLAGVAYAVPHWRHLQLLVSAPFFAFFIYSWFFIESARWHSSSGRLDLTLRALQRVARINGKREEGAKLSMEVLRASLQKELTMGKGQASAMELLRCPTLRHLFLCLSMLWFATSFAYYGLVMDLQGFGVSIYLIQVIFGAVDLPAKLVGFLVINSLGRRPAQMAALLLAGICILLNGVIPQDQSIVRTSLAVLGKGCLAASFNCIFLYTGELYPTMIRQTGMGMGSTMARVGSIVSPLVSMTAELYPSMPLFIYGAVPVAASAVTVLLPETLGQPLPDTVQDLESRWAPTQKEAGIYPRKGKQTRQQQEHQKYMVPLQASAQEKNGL
Assay: [14C]-PAH uptake and its inhibition in HEK293-Flp-In OAT1 cells
Settings: Ki of acamprosate on PAH uptake, fit to competitive kinetics (Equation 4); Lab. 2
pKi: −log10 of the molar value.
Quantity: pKi

                                   compound  quantitative_readout
0  CC(=O)NCCCS(=O)(=O)O [acamprosate, acetylhomotaurinate]                  2.91

====

Target: OAT1 (Homo sapiens)
Test: [14C]-PAH uptake and its inhibition in HEK293-Flp-In OAT1 cells
Conditions: Ki, inhibition of PAH uptake via OAT1, Cheng-Prusoff from IC50, competitive inhibition assumed; Lab. 1
Quantity: Ki (µM)

>>> print(df.to_string())
                                   compound  unit  quantitative_readout
0  CC(=O)NCCCS(=O)(=O)O [acamprosate, acetylhomotaurinate]    µM                  1140

====

Biological target: OAT1 (Homo sapiens)
Assay: [14C]-PAH uptake and its inhibition in HEK293-Flp-In OAT1 cells
Settings: IC50, inhibition of PAH uptake via OAT1, 9.5 µM [14C]-PAH; 5 min; Lab. 1
pIC50: −log10 of the molar value.
Quantity: pIC50

>>> df
                                   compound  quantity  quantitative_readout
0  CC(=O)NCCCS(=O)(=O)O [acamprosate, acetylhomotaurinate]     pIC50                  2.86
